We begin with a simple list: items and their reported IC50.
target: CHO-CFTR cell line (Homo sapiens); construct: expressed in transfected cells; host or cells: CHO (CHO-CFTR cell line); assay: CHO-CFTR assay (FLIPR assay, same conditions as the T84 assay); type: cell-based; conditions: imidazole and triazole-containing compounds
Sequence (P13569 whole entry): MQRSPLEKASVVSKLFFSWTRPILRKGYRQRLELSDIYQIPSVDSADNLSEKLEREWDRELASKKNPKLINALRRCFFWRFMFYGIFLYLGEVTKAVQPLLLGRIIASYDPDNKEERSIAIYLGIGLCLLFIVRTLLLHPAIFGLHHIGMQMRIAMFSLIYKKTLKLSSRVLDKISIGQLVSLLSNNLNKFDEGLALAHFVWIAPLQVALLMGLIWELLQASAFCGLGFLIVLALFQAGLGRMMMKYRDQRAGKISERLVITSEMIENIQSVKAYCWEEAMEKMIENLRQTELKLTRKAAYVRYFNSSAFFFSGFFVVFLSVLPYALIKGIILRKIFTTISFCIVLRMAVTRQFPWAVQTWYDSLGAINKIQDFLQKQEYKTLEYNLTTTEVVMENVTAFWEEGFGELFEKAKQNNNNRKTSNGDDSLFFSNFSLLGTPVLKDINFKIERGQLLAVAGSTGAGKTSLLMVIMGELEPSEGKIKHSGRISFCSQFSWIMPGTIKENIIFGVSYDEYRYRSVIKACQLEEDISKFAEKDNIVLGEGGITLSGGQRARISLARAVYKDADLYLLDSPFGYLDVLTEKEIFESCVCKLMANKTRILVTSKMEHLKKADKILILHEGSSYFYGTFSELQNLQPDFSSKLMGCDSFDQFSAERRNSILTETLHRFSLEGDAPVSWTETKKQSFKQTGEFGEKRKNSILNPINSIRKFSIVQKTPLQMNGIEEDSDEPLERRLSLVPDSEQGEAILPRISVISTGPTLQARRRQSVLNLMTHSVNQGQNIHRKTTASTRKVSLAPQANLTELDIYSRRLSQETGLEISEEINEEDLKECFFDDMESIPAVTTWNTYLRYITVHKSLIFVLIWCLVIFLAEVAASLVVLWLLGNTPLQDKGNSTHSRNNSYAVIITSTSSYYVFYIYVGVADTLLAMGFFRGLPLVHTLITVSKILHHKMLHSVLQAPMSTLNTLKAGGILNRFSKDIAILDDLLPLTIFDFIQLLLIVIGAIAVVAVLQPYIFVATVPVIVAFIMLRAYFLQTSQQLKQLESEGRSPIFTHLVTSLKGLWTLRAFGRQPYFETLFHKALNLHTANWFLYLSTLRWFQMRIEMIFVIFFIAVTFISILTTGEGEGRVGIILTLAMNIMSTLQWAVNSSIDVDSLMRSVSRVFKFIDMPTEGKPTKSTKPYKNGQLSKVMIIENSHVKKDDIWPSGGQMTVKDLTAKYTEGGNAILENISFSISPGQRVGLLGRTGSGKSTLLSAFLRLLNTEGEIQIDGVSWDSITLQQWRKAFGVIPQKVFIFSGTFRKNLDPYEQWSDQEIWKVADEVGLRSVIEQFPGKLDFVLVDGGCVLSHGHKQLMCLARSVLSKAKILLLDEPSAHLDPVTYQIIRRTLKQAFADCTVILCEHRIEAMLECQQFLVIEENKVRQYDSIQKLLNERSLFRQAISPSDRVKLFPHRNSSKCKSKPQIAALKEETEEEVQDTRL
Form field: result (number plus unit)

>>> observed_measurement("O=C(NCc1ccc(Cl)c(Cl)c1)c1ncn(-c2cc(Cl)c(O)c(Cl)c2)n1 [37i]")
"5.71 µM"

IC50 for O=C(NC(c1ccccc1)c1ccccc1)c1ncn(-c2cc(Cl)c(O)c(Cl)c2)n1 [2i] ? 6.45 µM

Name the reported IC50 value associated with the compound CC(C)N(Cc1ccc(Cl)c(Cl)c1)C(=O)c1ncn(-c2cc(Cl)c(O)c(Cl)c2)n1 [98i] 8.39 µM

Please report the recorded IC50 for COCCOCCOCCOCCN(Cc1ccc(Oc2ccccc2)cc1)C(=O)c1ncn(-c2cc(Cl)c(O)c(Cl)c2)n1 [112i] . 26.1 µM

----------
target: CFTR (Homo sapiens, UniProt P13569); construct: endogenous in cells; host or cells: T84 human colonic cells (ECACC); test: T84 assay (FLIPR membrane potential dye, forskolin/IBMX-stimulated CFTR channel activity); type: cell-based; details: imidazole and triazole-containing compounds (Tables 13, 14, 14′), read-out: IC50 (μM) (T84 assay)
Readout Type: IC50
Please state the value followed by its unit.

Here is how some compounds turned out for IC50.
>>> observed_measurement("O=C(NCc1ccc(F)c(F)c1)c1ncn(-c2cc(Cl)c(O)c(Cl)c2)n1 [42i]")
"15.9 µM"
>>> observed_measurement("O=C(c1ncn(-c2cc(Cl)c(O)c(Cl)c2)n1)N(O)Cc1ccc(Oc2ccccc2)cc1 [131i]")
"4.87 µM"
>>> observed_measurement("COCCOCCOCCOCCOCCOCCOCCOCCN(Cc1ccc(C(C)(C)C)cc1)C(=O)c1ncn(-c2cc(Cl)c(O)c(Cl)c2)n1 [117i]")
"21.4 µM"
>>> observed_measurement("O=C(NCc1cc(F)c(F)c(F)c1)c1ncn(-c2cc(Cl)c(O)c(Cl)c2)n1 [43i]")
"13.3 µM"
>>> observed_measurement("O=C(NC(c1ccccc1)c1ccccc1)c1ncn(-c2cc(Cl)c(O)c(Cl)c2)n1")
"4.88 µM"
>>> observed_measurement("COCCOCCOCCOCCN(Cc1ccc(C(C)(C)C)cc1)C(=O)c1ncn(-c2cc(Cl)c(O)c(Cl)c2)n1 [120i]")
"5.9 µM"
>>> observed_measurement("O=C(NCc1ccc(-c2ccc(C(F)(F)F)cn2)cc1)c1ncn(-c2cc(Cl)c(O)c(Cl)c2)n1 [39i]")
"2.51 µM"
>>> observed_measurement("O=C(NCc1ccc(Oc2cc(Cl)c(OCc3ccccc3)c(Cl)c2)cc1)c1ncn(-c2cc(Cl)c(O)c(Cl)c2)n1 [73i]")
"30.7 µM"
>>> observed_measurement("COCCOCCOCCN(Cc1cccc(OC(F)(F)F)c1)C(=O)c1ncn(-c2cc(Cl)c(O)c(Cl)c2)n1 [113i]")
"23.5 µM"
>>> observed_measurement("O=C(NCc1ccc(Oc2ccc(OCc3ccccc3)c(F)c2)cc1)c1ncn(-c2cc(Cl)c(O)c(Cl)c2)n1 [71i]")
"8.06 µM"

Which IC50 reading was recorded for the compound C=CCN(Cc1ccc(C(C)(C)C)cc1)C(=O)c1ncn(-c2cc(Cl)c(O)c(Cl)c2)n1 [51i] ? 0.63 µM

Any idea what its IC50 is? The compound is O=C(NCc1ccc(F)c(C(F)(F)F)c1)c1ncn(-c2cc(Cl)c(O)c(Cl)c2)n1 [29i] 7.52 µM

----------
Below: a set of entries, each annotated with reported IC50.
biological target: CFTR (Homo sapiens, UniProt P13569); construct: endogenous in cells; host or cells: T84 human colonic cells (ECACC); experiment: T84 assay (FLIPR membrane potential dye, forskolin/IBMX-stimulated CFTR channel activity); format: cell-based; details: imidazole and triazole-containing compounds (Tables 13, 14, 14′), read-out: IC50 (μM) (T84 assay)
Write the number in µM without appending the unit.

# example entries with known answers
>>> observed_measurement("O=C(c1ncn(-c2cc(Cl)c(O)c(Cl)c2)n1)N(Cc1ccccc1)Cc1ccc(Oc2ccccc2)cc1 [80i]")
4.4
>>> observed_measurement("CC(C)(C)c1ccc(CN(Cc2ccccc2)C(=O)c2ncn(-c3cc(Cl)c(O)c(Cl)c3)n2)cc1 [82i]")
1.6
>>> observed_measurement("CON(Cc1cccc(C(F)(F)F)c1)C(=O)c1ncn(-c2cc(Cl)c(O)c(Cl)c2)n1 [124i]")
8.22
>>> observed_measurement("O=C(NCc1cccc(N2CCCCC2)c1)c1ncn(-c2cc(Cl)c(O)c(Cl)c2)n1 [38i]")
5.61
>>> observed_measurement("O=C(NCc1cccc(-c2ccccc2)c1)c1ncn(-c2cc(Cl)c(O)c(Cl)c2)n1 [25i]")
3.7

Switching to the query record.
Could you share which IC50 value was measured for CC(C)(C)c1ccc(CN(Cc2cccnc2)C(=O)c2ncn(-c3cc(Cl)c(O)c(Cl)c3)n2)cc1 [93i] ? 1.19

----------
target: CFTR (Homo sapiens); construct: endogenous in cells; host or cells: T84 human colonic cells (ECACC); test: T84 assay (FLIPR membrane potential dye, forskolin/IBMX-stimulated CFTR channel activity); type: cell-based; settings: oxadiazole-containing compounds (a series), average of at least 2 runs unless annotated n = 1, read-out: IC50
Readout Type: pIC50
// pIC50 is dimensionless: -log10 of concentration (M)

>>> observed_measurement("O=C(c1nc(-c2cc(Br)c(O)c(Br)c2)no1)N1CCN(c2ccccc2)CC1 [16a]")
5.04

Please give the measured pIC50 for this compound: O=C(NCc1cccc(N2CCCCC2)c1)c1noc(-c2cc(Cl)c(O)c(Cl)c2)n1 [157a] 5.48

Which pIC50 value belongs to O=C(NCc1ccc(F)cc1F)c1nc(-c2cc(Cl)c(O)c(Cl)c2)no1 [132a] ? 4.79

Need pIC50 of O=C(NCc1c(F)cccc1F)c1noc(-c2cc(Cl)c(O)c(Cl)c2)n1 [103a] , thanks. 5.02

Which value of pIC50 has been reported for CC(C)(C)C(=O)CN(Cc1ccc(Oc2ccccc2)cc1)C(=O)c1nc(-c2cc(Cl)c(O)c(Cl)c2)no1 [165a] in the records? 4.94

What measured pIC50 goes with O=C(NCc1ccc(Oc2ccc(C(F)(F)F)cc2)cc1)c1nc(-c2cc(Cl)c(O)c(Cl)c2)no1 [198a] ? 4.71

Fill in: pIC50 of O=C(NCc1cccc(F)c1)c1nc(-c2cc(Br)c(O)c(Br)c2)no1 [23a] is ___ 4.90

# query: pIC50 of entry CN(Cc1cccc(C(F)(F)F)c1)C(=O)c1nc(-c2cc(Br)c(O)c(Br)c2)no1 [11a] 5.11

----------
target: CHO-CFTR cell line (Homo sapiens); construct: expressed in transfected cells; host or cells: CHO (CHO-CFTR cell line); experiment: CHO-CFTR assay (FLIPR assay, same conditions as the T84 assay); type: cell-based; conditions: imidazole and triazole-containing compounds
We begin with a simple list: items and their reported IC50.
API: value field is a number in µM; no unit string.

For orientation, consider the following solved cases.
>>> observed_measurement("CC(C)(C)c1ccc(Oc2ccc(CNC(=O)c3ncn(-c4cc(Cl)c(O)c(Cl)c4)n3)cc2)cc1 [68i]")
19.1
>>> observed_measurement("CCN(Cc1cccc(C(F)(F)F)c1)C(=O)c1ncn(-c2cc(Cl)c(O)c(Cl)c2)n1 [90i]")
15.9
>>> observed_measurement("CCN(Cc1ccc(Oc2ccccc2)cc1)C(=O)c1ncn(-c2cc(Cl)c(O)c(Cl)c2)n1 [86i]")
28.9
>>> observed_measurement("O=C(NCc1ccc(Oc2ccc(Cl)c(C(F)(F)F)c2)cc1)c1ncn(-c2cc(Cl)c(O)c(Cl)c2)n1 [70i]")
19.4
>>> observed_measurement("O=C(c1ncn(-c2cc(Cl)c(O)c(Cl)c2)n1)N(Cc1cccnc1)Cc1cccc(C(F)(F)F)c1 [94i]")
21.1

Here is the next item to consider.
May I ask what IC50 has been recorded for CCN(Cc1ccc(Cl)c(Cl)c1)C(=O)c1ncn(-c2cc(Cl)c(O)c(Cl)c2)n1 [108i] ? 4.08

----------
target: CFTR (Homo sapiens, UniProt P13569); construct: endogenous in cells; host or cells: T84 human colonic cells (ECACC); assay: T84 assay (FLIPR membrane potential dye, forskolin/IBMX-stimulated CFTR channel activity); type: cell-based; conditions: oxadiazole-containing compounds (a series), average of at least 2 runs unless annotated n = 1, read-out: IC50
pIC50 values by entry
Please treat pIC50 as minus the base-10 logarithm of the molar concentration.

Recorded pIC50, per entry:
>>> observed_measurement("CN(C)c1cccc(Oc2ccc(CNC(=O)c3nc(-c4cc(Cl)c(O)c(Cl)c4)no3)cc2)c1 [199a]")
4.91
>>> observed_measurement("Cc1cncc(Oc2cccc(CN(C)C(=O)c3nc(-c4cc(Cl)c(O)c(Cl)c4)no3)c2)n1 [172a]")
5.36
>>> observed_measurement("CN(Cc1ccc(-c2ncccn2)cc1)C(=O)c1nc(-c2cc(Cl)c(O)c(Cl)c2)no1 [189a]")
4.77
>>> observed_measurement("O=C(NCc1cccc(F)c1F)c1noc(-c2cc(Cl)c(O)c(Cl)c2)n1 [102a]")
5.00
>>> observed_measurement("O=C(NCc1cccc(OCc2ccccc2)c1)c1nc(-c2cc(Cl)c(O)c(Cl)c2)no1 [141a]")
5.11

Quick one: pIC50 of CN(Cc1ccc(-c2ccccn2)cc1)C(=O)c1nc(-c2cc(Cl)c(O)c(Cl)c2)no1 [186a] ? 5.25

Consider the compound shown here: O=C(NCc1ccc(F)c(C(F)(F)F)c1)c1noc(-c2cc(Cl)c(O)c(Cl)c2)n1 [159a] What is its recorded pIC50? 5.32

Endpoint output: pIC50 of CCCN(Cc1cccc(C(F)(F)F)c1)C(=O)c1nc(-c2cc(Cl)c(O)c(Cl)c2)no1 [108a] . Value? 5.55

Value source: patent US20100144733A1
